Target: recombinant METTL3/METTL14 complex (Homo sapiens)
Assay: METTL3/14 Scintillation Proximity Assay (SPA), RNA methyltransferase activity
Details: 5.31 nM METTL3/14 complex, 250 nM RNA substrate, 1 μM 3H-SAM, 90 min; for compounds marked * best of the two separated forms
pIC50: −log10 of the molar value.
measured endpoint: pIC50

Previously resolved entries follow.
{"molecule": "COc1cnc(C#N)c(-c2cn(C(C)n3ccc(N4CCC[C@@H](NCC5CCC5)C4)cc3=O)nn2)c1 (single isomer, unassigned) [Compound 109]", "pIC50": "≥ 7.30"}
{"molecule": "COc1cncc(-c2cn(C3(c4ccc(N5CCC[C@@H](NCC6CCC6)C5)cn4)COC3)nn2)c1 [Compound 150]", "pIC50": "≥ 7.30"}
{"molecule": "CC(c1ccc(N2CCC[C@@H](NCC3CC3)C2)cn1)n1cc(-c2cncc(N(C)C)n2)nn1 (single isomer, unassigned) [Compound 260]", "pIC50": "≥ 7.30"}
{"molecule": "CC(c1nnc(-c2cncc(N(C)C)n2)s1)n1ccc(N2CCC[C@@H](NCC3CC3)C2)cc1=O (stereo partly drawn) [Compound 231]", "pIC50": "≥ 7.30"}
{"molecule": "CC(n1cc(-c2cncc(-n3cccn3)c2)nn1)n1ccc(N2CCC[C@@H](NCC3CCC3)C2)cc1=O (mixture of isomers) [Compound 146]", "pIC50": "≥ 7.30"}

Consider now this further molecule.
Input: Recorded pIC50 of COc1cncc(-c2cn(C(c3ccc(N4CCC[C@@H](NCC5CCC5)C4)nn3)C3CC3)nn2)c1 (single isomer, unassigned) [Compound 084] , please.
Output: ≥ 7.30

====

Recorded measurements of IC50, one per entry
Target: recombinant METTL3/METTL14 complex (Homo sapiens)
Assay: METTL3/14 Scintillation Proximity Assay (SPA), RNA methyltransferase activity
Details: 5.31 nM METTL3/14 complex, 250 nM RNA substrate, 1 μM 3H-SAM, 90 min; for compounds marked * best of the two separated forms

Before answering, review these 3 worked examples.
{"compound": "c1cc(C2(n3cc(-c4cncc(N5CC6CC6C5)n4)nn3)COC2)ncc1N1CCC[C@@H](NCC2CC2)C1 (stereo partly shown) [Compound 216]", "measured endpoint": "IC50", "value observed": "≤ 50 nM"}
{"compound": "CC(n1cc(-c2cncc(NCCO)c2)nn1)n1ccc(N2CCC[C@@H](NCC3CC3)C2)cc1=O (stereo partly shown) [Compound 205]", "measured endpoint": "IC50", "value observed": "≤ 50 nM"}
{"compound": "COc1cc(-c2cn(Cc3ccc(N4CCC[C@@H](NC5CCC5)C4)nn3)nn2)c2cn[nH]c2c1 [Compound 030]", "measured endpoint": "IC50", "value observed": "≤ 50 nM"}

Switching to the query record.
Input: Reported IC50, compound COc1cc(-c2cn(Cc3ccc(N4CCC[C@@H](NCC5CCC5)C4)nn3)nn2)c2cncn2c1 [Compound 013] : ____
Output: ≤ 50 nM

====

Target: recombinant METTL3/METTL14 complex (Homo sapiens, UniProt Q86U44)
Sequence (Q86U44 whole entry): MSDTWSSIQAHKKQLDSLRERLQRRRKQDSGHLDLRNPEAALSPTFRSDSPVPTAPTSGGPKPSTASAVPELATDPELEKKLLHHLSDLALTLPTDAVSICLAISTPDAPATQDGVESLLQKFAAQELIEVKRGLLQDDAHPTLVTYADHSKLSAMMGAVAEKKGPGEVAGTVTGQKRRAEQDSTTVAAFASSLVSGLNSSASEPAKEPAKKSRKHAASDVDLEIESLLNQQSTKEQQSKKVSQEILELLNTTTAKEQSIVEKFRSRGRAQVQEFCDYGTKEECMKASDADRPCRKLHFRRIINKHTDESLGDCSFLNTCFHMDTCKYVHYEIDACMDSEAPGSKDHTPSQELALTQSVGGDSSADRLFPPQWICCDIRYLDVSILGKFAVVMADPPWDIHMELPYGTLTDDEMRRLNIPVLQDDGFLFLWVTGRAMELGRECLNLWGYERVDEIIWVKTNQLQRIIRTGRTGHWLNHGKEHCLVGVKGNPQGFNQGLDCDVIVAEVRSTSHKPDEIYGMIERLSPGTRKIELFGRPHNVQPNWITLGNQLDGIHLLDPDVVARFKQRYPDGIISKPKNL
Sequence (Q9HCE5 whole entry partner): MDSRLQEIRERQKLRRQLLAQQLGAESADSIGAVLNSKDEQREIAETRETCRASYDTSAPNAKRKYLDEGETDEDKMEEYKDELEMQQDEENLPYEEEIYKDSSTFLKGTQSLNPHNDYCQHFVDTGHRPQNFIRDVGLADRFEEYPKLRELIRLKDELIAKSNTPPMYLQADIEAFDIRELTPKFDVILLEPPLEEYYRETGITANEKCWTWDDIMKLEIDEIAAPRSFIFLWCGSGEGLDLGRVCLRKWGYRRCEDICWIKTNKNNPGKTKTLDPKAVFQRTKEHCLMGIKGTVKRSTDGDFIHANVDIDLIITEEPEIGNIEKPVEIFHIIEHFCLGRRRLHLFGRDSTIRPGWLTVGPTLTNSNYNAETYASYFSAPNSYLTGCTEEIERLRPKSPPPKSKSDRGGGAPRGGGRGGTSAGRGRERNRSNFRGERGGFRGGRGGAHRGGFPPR
Assay: METTL3/14 Scintillation Proximity Assay (SPA), RNA methyltransferase activity
Details: 5.31 nM METTL3/14 complex, 250 nM RNA substrate, 1 μM 3H-SAM, 90 min; for compounds marked * best of the two separated forms
pIC50: −log10 of the molar value.
Recorded measurements of pIC50, one per entry

Input: # input molecule: c1ncc(C2CCC2)cc1-c1cn(C2(c3ccc(N4CCC[C@@H](NCC5CC5)C4)cn3)COC2)nn1 [Compound 312] ; wanted: its pIC50
Output: ≥ 7.30

Sourced from patent US20250002475A1
